Target: recombinant Human Phosphodiesterase B2 (PDE4B2) (Homo sapiens)
Experiment: Human Phosphodiesterase B2 Alpha Screen Assay
Conditions: cAMP substrate, Alpha Screen cAMP kit, 60 minutes at room temperature
measure: IC50 (nM)

Examples with answers:
>>> df
                                   compound                              study_system  uom  reported_result
0  Cc1ccc(C(=O)N[C@H]2CC[C@@H](n3c(=O)c4cc(F)cnc4n(-c4ccc(F)c(F)c4)c3=O)CC2)c(O)c1 [Example 9]  recombinant Human Phosphodiesterase B2 (PDE4B2) (Homo sapiens)   nM              1.3
1  CSc1cccc(-n2c(=O)n([C@H]3CC[C@@H](NC(=O)[C@H](O)c4ccccc4)CC3)c(=O)c3cc(F)cnc32)c1 [Example 37]  recombinant Human Phosphodiesterase B2 (PDE4B2) (Homo sapiens)   nM              0.5

[P] COC(=O)c1ccccc1C(=O)N[C@H]1CC[C@@H](n2c(=O)c3cc(F)cnc3n(-c3ccc(F)c(F)c3)c2=O)CC1 [Example 7]
[Q] O=C(N[C@H]1CC[C@@H](n2c(=O)c3cc(F)cnc3n(-c3ccc(F)c(F)c3)c2=O)CC1)c1ccc2[nH]ccc2c1 [Example 85]
Request: Identify the entry with the larger IC50. Options: P and Q Answer format: the label of the selected item.
Result: P

[I] O=C([C@H](O)c1ccccc1)N1CCC(n2c(=O)c3cc(F)cnc3n(-c3ccc(F)c(F)c3)c2=O)CC1 [Example 77]
[II] CS(=O)(=O)c1cccc(-n2c(=O)n([C@H]3CC[C@@H](NC(=O)c4cc(Cl)ccc4O)CC3)c(=O)c3cc(F)cnc32)c1 [Example 40]
[III] CS(=O)(=O)c1cccc(-n2c(=O)n([C@H]3CC[C@@H](NC(=O)c4cc(CO)ccc4O)CC3)c(=O)c3cc(F)cnc32)c1 [Example 41]
Request: Form: Sort by [IC50] Order [ ascending ] Sort and list the labels as requested.
Result: III, II, I
(III: 51.9 nM, II: 90.6 nM, I: 147 nM)

====

Target: recombinant Human Phosphodiesterase B2 (PDE4B2) (Homo sapiens)
Assay: Human Phosphodiesterase B2 Alpha Screen Assay
Conditions: cAMP substrate, Alpha Screen cAMP kit, 60 minutes at room temperature
measure: IC50 (nM)

As a guide, the following entries are already answered.
>>> print(df.to_string())
                                   compound  measure  reported_result
0  COC(=O)c1cccc(C(=O)N[C@H]2CC[C@@H](n3c(=O)c4cc(F)cnc4n(-c4ccc(F)c(F)c4)c3=O)CC2)c1 [Example 29]     IC50              1.2
1  COC(=O)c1ccc(C(=O)N[C@H]2CC[C@@H](n3c(=O)c4cc(F)cnc4n(-c4ccc(F)c(F)c4)c3=O)CC2)cn1 [Example 50]     IC50              2.1
2  Cn1cnc(C(=O)N[C@H]2CC[C@@H](n3c(=O)c4cc(F)cnc4n(-c4ccc(F)c(F)c4)c3=O)CC2)c1 [Example 97]     IC50             2.18
3  O=C(N[C@H]1CC[C@@H](n2c(=O)c3cc(F)cnc3n(-c3ccc(F)c(F)c3)c2=O)CC1)c1cccc(O)c1 [Example 5]     IC50              2.2

[I] O=C(N[C@H]1CC[C@@H](n2c(=O)c3cc(F)cnc3n(-c3ccc(F)c(F)c3)c2=O)CC1)c1ccc2[nH]cnc2c1 [Example 88]
[II] O=C(N[C@H]1CC[C@@H](n2c(=O)c3cc(F)cnc3n(-c3ccc(F)c(F)c3)c2=O)CC1)c1ccc2ncsc2c1 [Example 91]
[III] O=C(N[C@H]1CC[C@@H](n2c(=O)c3cc(F)cnc3n(-c3ccc(F)c(F)c3)c2=O)CC1)c1cc[nH]n1 [Example 98]
Request: List these items ordered by IC50, big to small. Give me the labels in the order the question wants.
Result: III, I, II

====

Target: recombinant Human Phosphodiesterase B2 (PDE4B2) (Homo sapiens, UniProt Q07343)
Sequence (Q07343 1-564 isoform Q07343-2): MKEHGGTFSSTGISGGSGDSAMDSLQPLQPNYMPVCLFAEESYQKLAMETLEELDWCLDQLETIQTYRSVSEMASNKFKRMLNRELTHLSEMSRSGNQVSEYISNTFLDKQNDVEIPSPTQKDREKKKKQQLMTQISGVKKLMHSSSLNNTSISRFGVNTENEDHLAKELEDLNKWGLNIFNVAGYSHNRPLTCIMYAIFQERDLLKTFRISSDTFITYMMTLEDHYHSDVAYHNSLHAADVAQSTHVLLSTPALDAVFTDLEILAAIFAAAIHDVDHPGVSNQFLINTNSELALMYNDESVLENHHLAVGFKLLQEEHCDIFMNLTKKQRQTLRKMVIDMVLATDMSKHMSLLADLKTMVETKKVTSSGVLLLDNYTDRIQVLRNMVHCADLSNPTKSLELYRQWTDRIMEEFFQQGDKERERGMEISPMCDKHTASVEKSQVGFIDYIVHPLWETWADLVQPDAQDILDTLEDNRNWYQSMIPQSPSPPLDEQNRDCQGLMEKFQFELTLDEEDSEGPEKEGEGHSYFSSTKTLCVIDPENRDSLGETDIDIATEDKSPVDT
Assay: Human Phosphodiesterase B2 Alpha Screen Assay
Format: biochemical
Conditions: cAMP substrate, Alpha Screen cAMP kit, 60 minutes at room temperature
pIC50: −log10 of the molar value.
measure: pIC50

[a] O=C([C@H](O)c1ccccc1)N1CC[C@H](n2c(=O)c3cc(F)cnc3n(-c3ccc(F)c(F)c3)c2=O)C1
[b] O=C(N[C@H]1CC[C@@H](n2c(=O)c3cc(F)cnc3n(-c3ccc(F)c(F)c3)c2=O)CC1)c1cc(CO)ccc1O
Request: Between a and b , whose measured pIC50 reads higher? Choose, then provide that item's label.
Result: b

[I] O=C(N[C@H]1CC[C@@H](n2c(=O)c3cc(F)cnc3n(-c3ccc(F)c(F)c3)c2=O)CC1)c1nc2ccccc2s1
[II] O=C([C@H](O)C1CCCCC1)N1CC[C@@H](n2c(=O)c3cc(F)cnc3n(-c3ccc(F)c(F)c3)c2=O)C1
Request: Please compare: I and II . Report which one has the smaller pIC50 value. Pick one; state its label.
Result: II
(II: 8.09, I: 8.68)

====

Molecular target: recombinant Human Phosphodiesterase B2 (PDE4B2) (Homo sapiens)
Assay: Human Phosphodiesterase B2 Alpha Screen Assay
Details: cAMP substrate, Alpha Screen cAMP kit, 60 minutes at room temperature
pIC50: −log10 of the molar value.
measure: pIC50

In [3]: df
Out[3]:
                                   compound  reported_result
0  COc1ccc(C(=O)N[C@H]2CC[C@@H](n3c(=O)c4cc(F)cnc4n(-c4ccc(F)c(F)c4)c3=O)CC2)c(O)c1 [Example 19]             8.70
1  O=C(Cc1ccc(O)cc1)N[C@H]1CC[C@@H](n2c(=O)c3cc(F)cnc3n(-c3ccc(F)c(F)c3)c2=O)CC1 [Example 8]             8.66
